The values you see were collected from patent US10975068B2.

Please respond with reported Kd for every item in the list.
- system_under_test: human RORγt ligand binding domain (RORγt LBD) (Homo sapiens (Human))
- Sequence (P51449 other isoform, or with tags, fused parts or gaps): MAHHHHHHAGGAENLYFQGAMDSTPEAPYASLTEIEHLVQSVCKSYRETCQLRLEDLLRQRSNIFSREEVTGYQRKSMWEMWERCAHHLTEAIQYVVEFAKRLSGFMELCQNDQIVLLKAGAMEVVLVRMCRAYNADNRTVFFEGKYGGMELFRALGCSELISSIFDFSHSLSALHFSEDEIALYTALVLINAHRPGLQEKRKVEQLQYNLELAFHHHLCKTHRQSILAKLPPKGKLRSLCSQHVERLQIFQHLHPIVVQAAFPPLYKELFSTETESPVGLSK
- protocol_details: RORγt ThermoFluor® assay (thermal shift binding)
- experimental_setup: read-out: ThermoFluor® Assay, Kd
Supply the numeric figure in nM, leaving out any unit text.

Query :: Data request, read-out Kd, for C[C@H]1CCCN1C(=O)c1nc(C(=O)N[C@@H]2CCC[C@H]2O)sc1-c1cnc(NC(C)(C)C)cc1C(F)F
Result :: 1.2

Query :: Check CC[C@H](Nc1cc(C(F)F)c(-c2sc(C(=O)N3CC4CC(C3)O4)nc2C(=O)N2CCC[C@@H]2C)cn1)C(F)(F)F too.
Result :: 44

Query :: Moving on to CC[C@H](Nc1cc(C(F)F)c(-c2sc(C(=O)N[C@H]3COC[C@H]3O)nc2C(=O)N2CCC[C@@H]2C)cn1)C(F)(F)F (single isomer, unassigned)
Result :: 3.1
